- System: SNB-19 CNS
- assay-procedure: NCI-60 one-dose screen, 48 h (100 = growth as untreated, 0 = no growth, -100 = all killed)
- measurement-conditions: 10 µM unless noted
Compounds without any hit were thinned out: in the full panel of roughly 83,000, 20% have a hit.
measured-endpoint: growth (%)
# unit: % | format: bare number

Would you mind telling me what growth value was observed for CC(C)[C@]12O[C@H]1[C@@H]1O[C@]13[C@]1(O[C@H]1C[C@H]1C4=C(CC[C@@]13C)C(=O)OC4)[C@@H]2OC(=O)CN(C)C ?
23

Moving on to the next molecule: C[n+]1c2ccccc2c(Nc2ccc(N3CCCCC3)cc2)c2[nH]c3ccccc3c21
-89.8

Here is the next molecule: COc1cc2c(cc1OCCCCCn1c(-c3ccc(OCc4ccccc4)cc3)nc3cc(N4CCOCC4)ccc31)N=C[C@@H]1CCCN1C2=O
34.7

Also, Cc1nn(-c2ccc(Br)cc2)c2nc3c(nc12)C(=O)C(=O)c1ccccc1-3 please.
92.5

What do you get for O=C(/C=C/c1cc2ccccc2[nH]c1=O)c1ccc(Cl)cc1 ?
47.6

Cc1cc(C)n2nc(SCC(=O)Nc3sc4c(c3C(N)=O)CCC4)nc2n1 , same question.
102

Now consider CNc1ccc(CSc2ccc(Cl)cc2)cc1 .
89.5

And the next one, Cc1cc(C)n(C(=O)c2nn(-c3ccc(Cl)cc3)cc2O)n1 ?
26.3

Same question for O=C1CN(CO)C(=O)CN1CO please.
101

Now the molecule C/C(=C\CCc1ccsc1)CC/C=C(\C)CCCN1CCN(CCO)CC1
64

----------
- Test system: RXF 393 renal
- assay-procedure: NCI-60 one-dose screen, 48 h
- measurement-conditions: 10 µM unless noted
The panel holds about 83,000 compounds, 20% with a hit somewhere; the sample as a whole holds those more often. Calls of active or inactive are those of the source. The calls were made as follows: active = growth percent below 10; inactive = the rest.
Permitted responses: active, inactive

# lookup: test call for Cn1cnc([N+](=O)[O-])c1S(=O)(=O)Oc1ccc(Cl)cc1
inactive

Check ClC1=C(Cl)C(Cl)=C(Cl)C1=Cc1ccc(Cl)cc1 too.
inactive

COc1ccc2c(c1)nc(N)c1c3cc(OC)c(OC)cc3cn21 , same question.
inactive

Now this one: Fc1ccc(-c2nnc(-c3c(-c4ccc(F)cc4)nc4ncccn34)o2)cc1
inactive

Check O=[N+]([O-])c1ccc(N/N=C/c2c(O)ccc3ccccc23)nc1 too.
inactive

Same for Cc1ccc(C(=O)Nc2ccc(Cl)cc2C(=O)NCc2ccccc2)cc1
inactive

Next: Cc1ccc2c(c1)O/C(=C\c1ccc([N+](=O)[O-])o1)C2=O
active

Cool, now O=C(CSCC(=O)N/N=C/c1ccccc1O)N/N=C\c1ccccc1O
inactive

Entry to check: Cc1ccc(NC(=O)COC(=O)c2ccc(S(=O)(=O)N3CCCCCC3)cc2)cc1
inactive

Proceed to Cc1nn(-c2ccc(Cl)cc2)c2nc3c(nc12)C(=O)C(=O)c1ccccc1-3
inactive

Then COc1ccc(-c2cn(-c3ccccc3)c(-c3ccccc3)n2)cc1OC ?
inactive

Next entry: O=C(CCc1nnc(Cn2cncn2)o1)c1nc2ccccc2[nH]1
inactive

And the next one, Cc1nc2c(O)cccc2cc1CO ?
inactive

Same thing, different compound: COc1ccc(-c2c(-c3cc(OC)c(OC)c(OC)c3)noc2N)cc1
inactive

// query: CCN(CC)CCNc1ccc(Cl)cc1Cl
inactive

// next record C=C1c2c(C)nn(-c3ccc(C#CCOC4OC(CO)C(O)C(O)C4O)cc3)c2N(C)C23C[C@H]1C1(C)c4c(C)nn(-c5ccc(C#CCOC6OC(CO)C(O)C(O)C6O)cc5)c4N(C)C(C)(C[C@H]12)C3 (stereo not given in full)
inactive

// next record O=C1NCN(c2ccccc2)C12CCN(CCCC(c1ccc(F)cc1)c1ccc(F)cc1)CC2
inactive

Same question for CCOC(=O)C1=C(COCCN)NC(C)=C(C(=O)OC)C1c1ccccc1Cl (stereo not given) please.
inactive

Proceed to Cc1c(NCc2nnc3n(Cc4ccccc4)c(=O)c4c5c(sc4n23)CCCC5)c(=O)n(-c2ccccc2)n1C
inactive

Now give it for CCCCCCCC/C=C/CCCCCCCC1=NC(C)(C)CN1CCO too.
active

Do the same for Cc1nn(-c2ccccc2)c2nc3c(nc12)C(=O)CCC3 please
inactive

Next up: O=C(Nc1ccccc1Cl)c1cnc2ccc(C3CCNCC3)cn12
inactive

Another compound: CCOC(=O)C1=NN(c2ccc(Cl)cc2)C2C3N(c4ccc(Cl)cc4)N=C(C(=O)OCC)N3c3ccccc3N12 (stereo not given)
inactive

Would you mind doing CCC(C)CC(C)C(=O)c1c(O)ccn(O)c1=O (stereo not given) as well?
inactive

Now this one: O=C(O)c1ccc(NC(=O)c2ccc(Nc3ccnc(C(F)(F)F)c3)cc2)cc1
inactive

Could you do the same for CCCCCCC(C)(O)c1ccccc1 (stereo not given) , please?
inactive

Another compound: Nc1c2ccccc2nc2ccccc12 (tested in a mixture with another compound)
active

Same read-out for O=C1NCN(CCO)CN1 ?
inactive

Another compound: COc1ccc(COC(C)=O)cc1
inactive

Next entry: CC[C@@H]1OC(=O)[C@H](C)[C@@H](O[C@H]2C[C@@](C)(OC)[C@@H](O)[C@H](C)O2)[C@H](C)[C@@H](O[C@@H]2O[C@H](C)C[C@H](N(C)C)[C@H]2O)[C@](C)(O)C[C@@H](C)[C@@H]2N[C@@H](COCCOC)O[C@H]([C@H]2C)[C@]1(C)O
inactive

And the next one, CSC1=Nc2c(c(C)c(-c3ccccc3)n2CCCN2CCCCC2)C2=NC(=O)C[C@H](C)N12 ?
inactive

Same read-out for CC1=CSC2=NCCN12 ?
inactive

Do the same for CCCCCCCCCCCCCCCCCc1nccn1CCO please
inactive

Request: Nc1ccc(S(=O)(=O)Nc2ncccn2)cc1
inactive

Same read-out for NC(N)=N/N=C(/c1ccccc1)c1ccc(Cl)cc1 ?
inactive

Also, O=C(c1nn(-c2ccc(Cl)cc2)cc1O)n1nc(C(F)(F)F)cc1-c1ccccc1 please.
inactive

Record: O=C(C(=O)N1CCOCC1)c1ccc(OC2OC(CO)C(O)C(O)C2O)cc1 (stereo not given)
inactive

Moving on to the next compound: Cc1cccc(Cl)c1NC(=O)c1ccc2nc(NC(=O)NC3CC(C)(C)NC(C)(C)C3)sc2c1
inactive

Same question, Clc1cccc(Cc2cn3cc(-c4ccccc4)nc3s2)c1 this time
inactive

Now the same for CO[C@H]1CC(O[C@@H]2/C(C)=C/C[C@@H]3C[C@@H](C[C@]4(CC[C@H](C)[C@@H](C5CCCCC5)O4)O3)OC(=O)[C@@H]3C=C(C)/C(=N/O)[C@H]4OC/C(=C\C=C\[C@@H]2C)[C@]43O)O[C@@H](C)C1O (stereo not given in full)
active

----------
Task for the reader: assign each of the following molecules its reported growth.
- System: SR leukemia
- assay-procedure: NCI-60 one-dose screen, 48 h (100 = growth as untreated, 0 = no growth, -100 = all killed)
- measurement-conditions: 10 µM unless noted
Compounds without any hit were thinned out: in the full panel of roughly 83,000, 20% have a hit.
// return numeric value only (unit: %, not printed)

Which growth value is on record for COC(=O)[C@]12CC[C@@H](C)[C@H](C)[C@@H]1C1=CC[C@@H]3[C@@]4(C)C=C(O)C(=O)[C@@]5(C)COC(=C54)C[C@@]3(C)[C@]1(C)CC2 ?
-68.2

Same read-out for Nc1nc(SCC2(CCl)COC2)c2[nH]cnc2n1 ?
83.8

Another molecule to look at: COc1cc(C2CC(c3ccc(C)cc3)=NN2C(C)=O)ccc1Oc1ccnc2cc(Cl)ccc12 (stereo unspecified)
35.1

Continue with O=C(COC(=O)[C@H](C[Se][Se]C[C@H](NC(=O)c1ccc(Br)cc1F)C(=O)OCC(=O)c1ccc(F)cc1)NC(=O)c1ccc(Br)cc1F)c1ccc(F)cc1
-39.3

Can you handle O=C(Nc1ncc([N+](=O)[O-])s1)c1cccc([N+](=O)[O-])c1 next?
39.3

Request: N#Cc1cnc2cc(OC[C@H](O)CO)c(NC(=O)CC3CSSC3)cc2c1Nc1ccc(OCc2cccc(F)c2)c(Cl)c1
-72.6

Okay, and COc1cc2c(cc1OCCCOc1ccc(-c3cc4ccccc4c4ccccc34)cc1)N=C[C@@H]1CCCN1C2=O ?
102

Try this molecule too: O=[N+]([O-])c1ccc(Oc2cccc(C(F)(F)F)c2)c([N+](=O)[O-])c1
5.65

# iterate: C=C1CC[C@@H]2[C@](C)(COC(C)=O)[C@H](OC(C)=O)CC[C@@]2(C)[C@@H]1CC(Nc1ccc(S(=O)(=O)Nc2cc(C)on2)cc1)C1=CCOC1=O (stereo partly specified)
1.4

Next entry: CCCCOc1ccc(C(C)(C)c2ccc(OCCCC)cc2)cc1
92.6

Ok, now C[n+]1c2ccccc2c(Nc2ccc(N3CCCCC3)cc2)c2[nH]c3ccccc3c21
-70.1

How about this molecule: Cc1c(NCc2nnc3n(Cc4ccccc4)c(=O)c4c5c(sc4n23)CCCC5)c(=O)n(-c2ccccc2)n1C
68.7

Same thing, different molecule: CCCCCCCC/C=C/CCCCCCCC1=NC(C)(C)CN1CCO
-43.1

Likewise for O=[N+]([O-])c1ccc(N/N=C\c2ccccc2[N+](=O)[O-])nc1 ?
92.4

Note, next up: CC(=O)Oc1ccc(C23c4ccccc4C2(OC(C)=O)c2cc(OC(C)=O)ccc23)cc1 (stereo unspecified)
-2.28

Query CCOc1nc(-c2ccccc2)cc2c(O)c(-c3nnco3)[nH]c(=O)c12 next
21.3

Input CCOc1cc(C(C)(C)C)ccc1C1=N[C@H](c2ccc(Cl)cc2)[C@H](c2ccc(Cl)cc2)N1C(=O)N1CCN(CC#Cc2cccc3c2CN([C@@H]2CCC(=O)NC2=O)C3=O)CC1
9.99

Item: COc1ccc(C2=NN(C(=O)c3cc(OC)c(OC)c(OC)c3)C(c3ccc(C#N)cc3)C2)cc1OC (stereo unspecified)
28.4

How about this molecule: CN(CC(=O)N(Cc1ccc(C2CCCCC2)cc1)c1ccc(C(=O)O)cc1)S(=O)(=O)c1c(F)c(F)c(F)c(F)c1F
-22.1

Same again, this time with CCOC(=O)c1cc(-c2cccnc2)nc2c(Cl)cc(Cl)cc12
117

Now this one: Nc1nc2ncc(CCNc3ccc(C(=O)NC(CCC(=O)O)C(=O)O)cc3)nc2c(=O)[nH]1 (stereo unspecified)
133

Param item: O=C(Nc1ccc(Oc2ccc(NC(=O)Nc3ccc([N+](=O)[O-])cc3)cc2)cc1)Nc1ccc([N+](=O)[O-])cc1
-3.7

Here is the next molecule: O=C1/C(=C/c2ccc3cccc(Cl)c3n2)SC(=S)N1CCc1ccc(O)cc1
79

Another molecule: CC(=O)c1cc(C(=O)c2ccc3c(c2)Sc2ccccc2N3)c2c(C)cc(C)cn12
5.45

Now the molecule CCN(CC)CCNc1ccc(Cl)cc1Cl
95.1

Lookup O=[P@@]1(c2ccccc2)O[C@H](COCc2ccccc2)[C@@H](OCc2ccccc2)[C@H](OCc2ccccc2)[C@H]1NCc1ccccc1
-2.72

And for O[C@@H]1Cc2ccc3ccccc3c2N[C@H](c2ccoc2)C1 ?
93.3

Item: COc1cccc(C2C(C#N)=C(N)Oc3cc(OC)ccc32)c1 (stereo unspecified)
-30.3

Proceed to COc1ccc2nc(-c3ccc(-n4cncc4-c4ccc(OC)c(N)c4)cc3)sc2c1
69.3

Record: CC(CCC(=O)O)(NC(=O)c1ccc([N+](=O)[O-])cc1)C(=O)O (stereo unspecified)
95.7

Would you kindly repeat that for COc1cc(/C=C/C(=O)c2ccc(F)cc2)ccc1OCCCCCOc1cc2c(cc1OC)C(=O)N1CCCC1C=N2 (stereo unspecified) ?
-32.6

How about this molecule: C[C@]12CC[C@@H]3c4ccc(O)c([N+](=O)[O-])c4CC[C@H]3[C@@H]1CC[C@@H]2NS(=O)(=O)c1cccc(Br)c1
-12.1

Then what about the molecule CCC(C)CC(C)C(=O)c1c(O)ccn(O)c1=O (stereo unspecified) ?
22.9

Likewise for Nc1ccc(S(=O)(=O)Nc2ncccn2)cc1 ?
103

Also N#Cc1ccc(NC(=O)Nc2ccc(Oc3ccc(NC(=O)Nc4ccc(C#N)cc4)cc3)cc2)cc1 , if possible.
3.43

Same for O=C(Nc1cccc2ccccc12)c1cc2c(cc1Br)OCO2
71.5
